- Target desc: TFAP2A DBD-HSH WT (Homo sapiens, UniProt P05549 203-420)
- Sequence (P05549 203-420): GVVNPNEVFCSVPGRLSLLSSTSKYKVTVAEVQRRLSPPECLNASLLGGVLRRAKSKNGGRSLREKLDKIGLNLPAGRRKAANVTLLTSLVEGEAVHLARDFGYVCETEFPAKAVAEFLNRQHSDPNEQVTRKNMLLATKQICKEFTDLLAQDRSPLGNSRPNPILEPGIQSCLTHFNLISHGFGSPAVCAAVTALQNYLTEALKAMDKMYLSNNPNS
- Protocol: ITC
Measured pKd of individual entries
Convention used: pKd is expressed as -log10 of the molar concentration.

Sample answers from the record:
Binder	Meas value
GCmC/GGC (dsDNA, methylcytosine at position 5 of strand 1; second strand methylation not stated) DNA 1: GTGCCCGAGGCAG DNA 2: CTGCCTCGGGCAC	6.97
N4 (4 bp spacer) (dsDNA) DNA 1: GTGCCCGATGGCAG DNA 2: CTGCCATCGGGCAC	6.47

Shifting focus to the binder that follows.
Given the entry CGA (GCC(N3)GGC) (dsDNA) DNA 1: GTGCCCGAGGCAG DNA 2: CTGCCTCGGGCAC , report its measured pKd.
7.72
